# testMethodNotes: Acute toxicity in po dosed Rattus norvegicus (rat)
# Format: organism-based
# assaySetup: in vivo
valueType: LD50 (mg/kg)
Numbers only, in mg/kg.

The compound listed as CC12CCC(C1)C(C)(C)C2=O (stereo unspecified) has a reported LD50 of 6160

====

# System: Dermatophagoides farinae
# testMethodNotes: Acaricidal activity against 7 to 10 day-old Dermatophagoides farinae adult after 24 hr by microscopy
# Type: functional
Checkbox rule: LD50 lower than 90 mg/m2 = true (1); LD50 not lower than 90 mg/m2 = false (0).

INSERT INTO results (compound, assignedclass) VALUES
  ('C=CCc1ccc(OC)cc1', 'false (0)'),
  ('CC1(C)C(=O)[C@@]2(C)CCC1C2 [(+)-FENCHONE]', 'true (1)'),
  ('CC1(C)C(=O)[C@]2(C)CCC1C2 [(-)-FENCHONE]', 'true (1)');

We now examine a further compound.
Query :: Item COc1ccc(C=O)cc1 : LD50 beneath 90 mg/m2, strictly?
Result :: true (1)

The measured values listed here are drawn from ChEMBL document CHEMBL3045934.
